B1: RAB40B (parent)
chain: YSLTTSSTHKRSSLRKVKLVRPPQ

# Variants of: B1
# test.method.notes: protein stability index of a GFP-peptide fusion (GPS, HEK-293T) (PSI 1-6); higher = more stable;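 also: lentivirally expressed fusions sorted by FACS into six bins by GFP to DsRed ratio, PSI derived from sequencing read proportions per bin multiplied by bin number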
# condition.set: c terminus: a fixed tail appended
Output condition met for protein stability index not less than 3; output condition not met otherwise.

Consider the following illustrative entries.
changes: L19V
discrete.label: condition met
--
changes: R21Y
discrete.label: condition not met
--
changes: K10A
discrete.label: condition met
--
changes: K18L
discrete.label: condition not met
--
changes: S7V
discrete.label: condition not met
--
changes: S6N
discrete.label: condition not met

Tell me whether protein stability index is at least 3 here: `K18T`
condition not met

And `S13E` ?
condition met

And the next one, `P23L` ?
condition not met

Now give it for `L19A` too.
condition met

Thanks! And `L3F` ?
condition not met

Another variant to check: `Y1W`
condition met
